- Tested on: MS2 coat protein
- TEST_SUMMARY: apparent KD of MS2 coat protein; designed switch direction (-1 OFF switch, 1 ON switch): -1; higher = weaker reporter binding
- STATED_CONDITIONS: Eterna round: R95; input ligand: microRNA oligo, concentration not stated
PROPERTY_LABEL: apparent KD of MS2 coat protein (nM)
Numbers only here, please. The scale is nM.

// worked examples, apparent KD of MS2 coat protein included
INSERT INTO results (residues, measured) VALUES
  ('GAGGAGCAAGGAUAUACGAGGAGAGGGAAGAGAGGAGAGAGACAUGAGGAUCACCCAUGUAGAAGGUGCAAGGA [JR_Exclu2_Sub092] (puzzle: Exclusion 2)', 35.4),
  ('AAAACACAUGAGGAUCACCCAUGUGAGGAUAUGUCCAUGCUCGGCAAACCGGGCAUGGACAGAAGGCACAUAAA [JR_Exclusion1_Sub015] (puzzle: Exclusion 1)', 40.3),
  ('GAUAAGGUAGGAUAUACGAAUAAAUAGGGUAGAAUAAUAACACAUGAGGAUCACCCAUGUAGAAGGACCAAUAG [Mat - Exclusion 2 - Mod of my Tesla design - D26] (puzzle: Exclusion 2)', 25.6);

Proceeding to the next sequence to report its apparent KD of MS2 coat protein.
State the recorded apparent KD of MS2 coat protein for this entry: GGUUGGCGAGGAUAUACAUGAGGAUCACCCAUGUGAGAGAAAAAAGUGAGGAAGACAAGUAGAAGGCGCUGACG [salish99_ex3_r3_035] (puzzle: Exclusion 3)
237

Every entry's value here was drawn from the supplement of paper PMC9170038.
